TARGET_DESC: EP2 subtype of the human PGE2 receptor (Homo sapiens, UniProt P43116)
Sequence (P43116 whole entry): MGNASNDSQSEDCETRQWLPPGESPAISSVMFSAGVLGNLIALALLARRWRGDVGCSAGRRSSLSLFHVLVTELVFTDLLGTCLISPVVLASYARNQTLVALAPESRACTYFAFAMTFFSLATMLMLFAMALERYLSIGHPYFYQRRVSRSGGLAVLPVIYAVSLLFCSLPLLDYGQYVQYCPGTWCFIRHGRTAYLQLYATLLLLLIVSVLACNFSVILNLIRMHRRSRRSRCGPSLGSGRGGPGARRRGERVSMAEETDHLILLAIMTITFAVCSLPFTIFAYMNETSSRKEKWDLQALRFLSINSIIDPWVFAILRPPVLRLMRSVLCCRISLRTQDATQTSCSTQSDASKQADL
METHOD_NOTES: cAMP antagonism test on the human EP2 receptor (HTRF cAMP detection)
Assay type: cell-based
CONDITION_INFO: hEP2 receptor, read-out: Antagonism hEP2 IC50
Cut-off 50 nM on IC50: below means true (1), at or above means false (0).

IC50 strictly < 50 nM for this compound? Cc1c(C(=O)NCCOC2CCC2)ccc2nn(CC3CN(C(=O)c4ccc(OC(F)(F)F)cc4)C3)cc12 [Example 137]
true (1)

New cases:
IC50 strictly < 50 nM for this compound? COCCNC(=O)c1ccc2nn(CC3CN(C(=O)c4cc5cc(OC)ccc5n4C)C3)cc2c1C [Example 172]
true (1)

IC50 strictly < 50 nM for this compound? COCCNC(=O)c1ccc2nn(CC3CCN(C(=O)c4ccc(S(C)(=O)=O)cc4F)CC3)cc2c1C [Example 6]
false (0)

###

TARGET_DESC: human PGD receptor (Homo sapiens)
Sequence (Q13258 whole entry): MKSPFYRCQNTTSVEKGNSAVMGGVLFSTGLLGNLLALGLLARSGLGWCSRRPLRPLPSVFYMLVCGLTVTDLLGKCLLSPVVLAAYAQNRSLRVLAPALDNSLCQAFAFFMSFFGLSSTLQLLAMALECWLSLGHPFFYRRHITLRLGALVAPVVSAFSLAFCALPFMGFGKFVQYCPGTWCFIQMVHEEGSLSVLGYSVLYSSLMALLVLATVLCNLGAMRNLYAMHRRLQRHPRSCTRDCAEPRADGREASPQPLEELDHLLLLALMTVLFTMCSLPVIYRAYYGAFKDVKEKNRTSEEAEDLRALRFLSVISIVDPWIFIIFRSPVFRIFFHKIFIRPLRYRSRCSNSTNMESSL
METHOD_NOTES: cAMP antagonism test on the human prostaglandin D receptor (HTRF cAMP detection)
Type: cell-based
CONDITION_INFO: selectivity towards hDP, IC50 measured by cAMP antagonism test
QUANTITY_KIND: Selectivity hEP2/hDP

Consider the following illustrative entries.
Supply recorded Selectivity hEP2/hDP for COC1CN(CCNC(=O)c2ccc3nn(CC4CCN(C(=O)c5ccc(Cl)cc5)CC4)cc3c2C)C1 here.
xxx (xxx > 100)

Supply recorded Selectivity hEP2/hDP for CCOc1c(C(=O)NCCOC)ccc2nn(CC3CCN(C(=O)c4ccc(S(F)(F)(F)(F)F)cc4)CC3)cc12 here.
xxx (xxx > 100)

Supply recorded Selectivity hEP2/hDP for Cc1cc2nn(CC3CCN(C(=O)c4ccc(-c5ccc(F)cc5)cc4)CC3)cc2cc1C(=O)NCCN1CCOCC1 here.
xxx (xxx > 100)

Supply recorded Selectivity hEP2/hDP for Cc1c(C(=O)NCC(C)C)ccc2nn(CC3CCN(C(=O)c4ccc(Cl)cc4)CC3)cc12 here.
xx (xx: 10-100)

Supply recorded Selectivity hEP2/hDP for Cc1c(C(=O)NCC(C)OCC2CC2)ccc2nn(CC3CCN(C(=O)c4ccc(C(F)(F)F)cc4)CC3)cc12 (racemic) here.
xx (xx: 10-100)

Supply recorded Selectivity hEP2/hDP for CCOCCNC(=O)c1ccc2nn(CC3CCN(C(=O)c4ccc(Cl)cc4)CC3)cc2c1OC here.
xxx (xxx > 100)

Value sought for every listed molecule: Selectivity hEP2/hDP.
1. COCCNC(=O)c1ccc2nn(CC3CCN(C(=O)c4ccc(-c5ccc(OC)cc5)cc4F)CC3)cc2c1C
2. Cc1c(C(=O)NCC(F)(F)F)ccc2nn(CC3CCN(C(=O)c4ccc(-c5ccc(F)cn5)cc4)CC3)cc12
3. COCCNC(=O)c1ccc2nn(CC3CCN(C(=O)c4ccc(Oc5ccccc5F)cc4)CC3)cc2c1C
4. COCCNC(=O)c1ccc2nn(CC3CCN(C(=O)c4ccc(-c5ccc(F)cc5F)cc4)CC3)cc2c1C
5. Cc1c(C(=O)NCCS(C)(=O)=O)ccc2nn(CC3CCN(C(=O)c4ccc(Br)cc4)CC3)cc12
6. COCCNC(=O)c1ccc2nn(CC3CCN(C(=O)c4ccc(Oc5ccc(C(F)(F)F)cc5)cc4)CC3)cc2c1C
7. COCCNC(=O)c1ccc2nn(CC3CCN(C(=O)c4ccc(OC(C)(C)C)cc4)CC3)cc2c1C

xxx (xxx > 100)
xx (xx: 10-100)
xxx (xxx > 100)
xxx (xxx > 100)
xxx (xxx > 100)
xxx (xxx > 100)
xxx (xxx > 100)

Value sought for every listed molecule: Selectivity hEP2/hDP.
1. COCCNC(=O)c1ccc2nn(CC3CCN(C(=O)c4ccc5cc(OC)ccc5c4)CC3)cc2c1C
2. Cc1c(C(=O)NCC(F)(F)F)ccc2nn(CC3CCN(C(=O)c4cc5cc(F)ccc5n4C)CC3)cc12

xxx (xxx > 100)
xxx (xxx > 100)

Data origin: patent US9062041B2
